Literature compilation of IC50 measurements on RORc (Homo sapiens).
Output schema: class label derived from IC50. Mapping: bucket A (below 20 nM), bucket B (20 nM to below 500 nM), bucket C (500 nM or more)

> print(dat)
                                smiles.code  target.or.test.system  label.class
1  CC1(C)[C@H]2CC[C@]1(c1ccnc(NCc3nnc[nH]3)n1)c1nnc(-c3c(F)cccc3F)cc12    RORc (Homo sapiens)     bucket A
2  CC1(C)[C@H]2CC[C@]1(c1ccnc(N3CC[C@H](O)C3)n1)c1nnc(-c3c(F)cccc3F)cc12    RORc (Homo sapiens)     bucket A
3  Cc1n[nH]c(C)c1S(=O)(=O)N(Cc1ccc(-c2cccc(S(C)(=O)=O)c2)s1)CC(C)C    RORc (Homo sapiens)     bucket C
4  C[C@H]1CC[C@H](c2ccccc2)S(=O)(=O)N1Cc1ccc(C2(CCO)CCOCC2)cc1F    RORc (Homo sapiens)     bucket A
5  CC1(C)[C@H]2CC[C@]1(c1nc(C(=O)NCCO)ncc1F)c1nnc(-c3c(F)cccc3F)cc12    RORc (Homo sapiens)     bucket B
6  C[C@H]1CC[C@H](c2ccccc2)S(=O)(=O)N1Cc1ccc(C2(C#N)CCC3(CC2)OCCO3)cc1F    RORc (Homo sapiens)     bucket B
7  CC1(C)[C@@H]2CC[C@@]1(C(=O)NCC1CC1)c1nnc(-c3ccccc3F)cc12    RORc (Homo sapiens)     bucket C
8  C[C@H]1CC[C@H](c2ccccc2)S(=O)(=O)N1Cc1cc(F)c(C2(OCC(N)=O)COC2)cc1F    RORc (Homo sapiens)     bucket A

**Q:** // return the class label for C[C@@H](O)c1nnc(-c2nccc([C@@]34CC[C@@H](c5cc(-c6c(F)cccc6F)nnc53)C4(C)C)n2)[nH]1
**A:** bucket B

**Q:** Please give the result for CCN(C[C@@]12CC[C@@H](c3cc(-c4c(F)cccc4F)nnc31)C2(C)C)C(N)=O too.
**A:** bucket B

**Q:** Please give the result for CC(C)CN(Cc1ccc(-c2cccc(S(C)(=O)=O)c2)s1)S(=O)(=O)Cc1ccc(F)cc1 too.
**A:** bucket C

**Q:** Please give the result for COC(=O)C1(c2ccc(CN3[C@@H](C)CC[C@@H](c4ccccc4)S3(=O)=O)c(F)c2)CCOCC1 too.
**A:** bucket B

**Q:** Please give the result for CC(C)CN(c1ccccc1Cl)S(=O)(=O)c1ccc(-c2ccc(C(N)=O)cc2)cc1 too.
**A:** bucket B

**Q:** Please give the result for CN(CCC#N)C(=O)[C@]12CC[C@H](c3cc(-c4c(F)cccc4F)nnc31)C2(C)C too.
**A:** bucket C

**Q:** Please give the result for CC1(C)[C@H]2CC[C@]1(c1cccnc1)c1nnc(-c3c(F)cccc3F)cc12 too.
**A:** bucket B
